Each entry below lists one item and its recorded half-life at 1 µM value.
- PROTOCOL TEXT: Rat liver microsomes (RLM) in vitro metabolism
- Type: in vitro ADME
- CONDITION INFO: Sprague-Dawley; rat liver microsomes (Table 17); read-out: RLM t1/2

COMPOUND: COc1cc(SC)c(OC)cc1C[C@@H](C)N [Reference Compound 2 (R)]
half-life at 1 µM / min: 16
--
COMPOUND: COc1cc(SC)c(OC)cc1C[C@H](C)N [Reference Compound 2 (S)]
half-life at 1 µM / min: 6.34
--
COMPOUND: COc1cc(SC)c(OC)cc1CCN [Reference Compound 3, reference compound]
half-life at 1 µM / min: 6.09
--
COMPOUND: COc1cc(C(F)(F)F)c(OC)cc1CCN [Reference Compound 4, reference compound]
half-life at 1 µM / min: 16.6

* * *

- TESTED TARGET: 5-HT2B (h) (Homo sapiens, UniProt P41595)
- Sequence (P41595 whole entry): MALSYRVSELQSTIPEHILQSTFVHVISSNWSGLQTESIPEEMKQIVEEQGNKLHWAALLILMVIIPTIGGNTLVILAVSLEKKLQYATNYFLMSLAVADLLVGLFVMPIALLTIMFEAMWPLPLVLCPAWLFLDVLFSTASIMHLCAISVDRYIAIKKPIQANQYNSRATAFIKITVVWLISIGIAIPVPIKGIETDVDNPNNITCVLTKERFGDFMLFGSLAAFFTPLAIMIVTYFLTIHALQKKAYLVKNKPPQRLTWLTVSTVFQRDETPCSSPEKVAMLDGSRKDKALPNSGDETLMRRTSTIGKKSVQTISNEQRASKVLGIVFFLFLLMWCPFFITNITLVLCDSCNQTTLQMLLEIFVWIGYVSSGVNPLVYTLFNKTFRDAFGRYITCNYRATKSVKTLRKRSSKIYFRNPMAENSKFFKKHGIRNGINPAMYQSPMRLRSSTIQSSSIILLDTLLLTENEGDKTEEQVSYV

COMPOUND: COc1cc(CC(C)N)c(OC)cc1I (racemic) [(±)DOI]
IC50: 3.8 nM

* * *

- TESTED TARGET: MAO-A (Homo sapiens, UniProt P21397)
- Construct: purchased XenoTech (first series); Corning (second series) Corning 456283
- Sequence (P21397 whole entry): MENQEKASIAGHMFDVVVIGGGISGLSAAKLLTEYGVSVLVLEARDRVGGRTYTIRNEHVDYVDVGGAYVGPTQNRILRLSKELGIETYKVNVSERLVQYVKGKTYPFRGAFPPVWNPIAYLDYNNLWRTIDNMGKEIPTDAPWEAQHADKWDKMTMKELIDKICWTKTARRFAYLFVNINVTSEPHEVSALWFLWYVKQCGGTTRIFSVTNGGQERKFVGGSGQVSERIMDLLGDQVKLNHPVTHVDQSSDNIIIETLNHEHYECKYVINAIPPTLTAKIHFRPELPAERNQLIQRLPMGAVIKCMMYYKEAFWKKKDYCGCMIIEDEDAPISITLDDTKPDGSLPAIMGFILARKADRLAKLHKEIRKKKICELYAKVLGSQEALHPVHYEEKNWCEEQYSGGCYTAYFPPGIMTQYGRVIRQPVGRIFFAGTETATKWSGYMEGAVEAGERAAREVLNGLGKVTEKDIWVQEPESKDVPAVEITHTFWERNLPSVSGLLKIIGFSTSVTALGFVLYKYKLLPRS
- PROTOCOL TEXT: Recombinant human MAO-A in vitro metabolism
- Format: in vitro ADME
- CONDITION INFO: human, recombinant human MAO-A, human recombinant MAO-A, test compound 1 μM; read-out: MAO-A t1/2

COMPOUND: CC(N)Cc1ccc2c(c1)OCS2 (stereo not drawn)
half-life at 1 µM: > 120 min
//
COMPOUND: [2H]C1([2H])Oc2cc(CCN)ccc2S1
half-life at 1 µM: 4.42 min
//
COMPOUND: NCCc1ccc2c(c1)OCO2 [Reference Compound 5, 3,4-Methylenedioxyphenethylamine, reference compound]
half-life at 1 µM: 8.34 min
//
COMPOUND: [2H]C1([2H])Oc2cc(CC(C)N)ccc2S1 (stereo not drawn)
half-life at 1 µM: > 120 min
//
COMPOUND: [2H]C1([2H])Oc2ccc(CCN)cc2O1
half-life at 1 µM: 7.97 min
//
COMPOUND: NCCc1ccc2c(c1)OCS2
half-life at 1 µM: 4.09 min

* * *

- TESTED TARGET: 5-HT2C (h) (Homo sapiens, UniProt P28335)
- Sequence (P28335 33-458): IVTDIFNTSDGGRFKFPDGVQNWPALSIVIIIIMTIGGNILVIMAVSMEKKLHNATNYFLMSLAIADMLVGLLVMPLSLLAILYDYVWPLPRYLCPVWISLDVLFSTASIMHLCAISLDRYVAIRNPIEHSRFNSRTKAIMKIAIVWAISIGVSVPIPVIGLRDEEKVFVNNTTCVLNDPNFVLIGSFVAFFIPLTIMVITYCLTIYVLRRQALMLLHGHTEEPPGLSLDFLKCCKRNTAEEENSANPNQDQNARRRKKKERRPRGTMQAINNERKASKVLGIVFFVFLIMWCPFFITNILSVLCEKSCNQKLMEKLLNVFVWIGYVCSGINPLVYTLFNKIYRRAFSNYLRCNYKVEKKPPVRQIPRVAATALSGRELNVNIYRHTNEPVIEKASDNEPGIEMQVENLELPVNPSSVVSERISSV
pKi: −log10 of the molar value.
READOUT KIND: pKi

COMPOUND: COc1cc(CC(C)N)c(OC)cc1I (racemic) [(±)DOI]
VAL: 9.48

* * *

- TESTED TARGET: Serotonin transporter (Rattus norvegicus)
- Construct: from tissue
- Sequence (P31652 whole entry): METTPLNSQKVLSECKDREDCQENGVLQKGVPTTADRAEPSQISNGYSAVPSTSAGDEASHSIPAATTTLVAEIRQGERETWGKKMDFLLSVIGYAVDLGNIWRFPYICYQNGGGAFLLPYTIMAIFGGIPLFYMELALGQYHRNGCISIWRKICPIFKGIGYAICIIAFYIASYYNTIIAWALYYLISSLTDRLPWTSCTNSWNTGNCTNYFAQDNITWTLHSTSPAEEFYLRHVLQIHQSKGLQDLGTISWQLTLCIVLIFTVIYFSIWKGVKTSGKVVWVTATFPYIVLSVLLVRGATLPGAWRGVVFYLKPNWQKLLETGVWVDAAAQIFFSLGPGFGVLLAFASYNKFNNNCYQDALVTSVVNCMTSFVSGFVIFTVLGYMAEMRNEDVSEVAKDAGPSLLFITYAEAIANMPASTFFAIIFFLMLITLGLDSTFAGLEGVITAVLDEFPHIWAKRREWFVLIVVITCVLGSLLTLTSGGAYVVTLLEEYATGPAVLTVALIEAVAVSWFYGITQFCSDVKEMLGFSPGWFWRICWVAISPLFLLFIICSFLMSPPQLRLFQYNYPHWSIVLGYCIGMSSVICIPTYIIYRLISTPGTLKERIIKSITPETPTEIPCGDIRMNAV
- PROTOCOL TEXT: Serotonin transporter uptake, rat brain synaptosomes
- Format: biochemical
- CONDITION INFO: blocking reuptake of 5-HT; read-out: Function SERT Estimated IC50
READOUT KIND: IC50

COMPOUND: CC(N)Cc1ccc2c(c1)OCS2 (racemic) [II-16 (racemic)]
READOUT KIND: IC50
VAL: < 200 nM

* * *

- TESTED TARGET: 5-HT2B (h) (Homo sapiens, UniProt P41595)
- Construct: expressed in transfected cells; host or cells: CHO cells
- PROTOCOL TEXT: 5-HT2B (h) agonist effect, IP1 HTRF functional assay
- Assay type: cell-based
pEC50: −log10 of the molar value.

COMPOUND: NCCc1ccc2c(c1)OCS2 [II-14]
pEC50: > 6.12

* * *

- TESTED TARGET: MAO-B (Homo sapiens)
- Construct: purchased Corning 456284
- Sequence (P27338 whole entry): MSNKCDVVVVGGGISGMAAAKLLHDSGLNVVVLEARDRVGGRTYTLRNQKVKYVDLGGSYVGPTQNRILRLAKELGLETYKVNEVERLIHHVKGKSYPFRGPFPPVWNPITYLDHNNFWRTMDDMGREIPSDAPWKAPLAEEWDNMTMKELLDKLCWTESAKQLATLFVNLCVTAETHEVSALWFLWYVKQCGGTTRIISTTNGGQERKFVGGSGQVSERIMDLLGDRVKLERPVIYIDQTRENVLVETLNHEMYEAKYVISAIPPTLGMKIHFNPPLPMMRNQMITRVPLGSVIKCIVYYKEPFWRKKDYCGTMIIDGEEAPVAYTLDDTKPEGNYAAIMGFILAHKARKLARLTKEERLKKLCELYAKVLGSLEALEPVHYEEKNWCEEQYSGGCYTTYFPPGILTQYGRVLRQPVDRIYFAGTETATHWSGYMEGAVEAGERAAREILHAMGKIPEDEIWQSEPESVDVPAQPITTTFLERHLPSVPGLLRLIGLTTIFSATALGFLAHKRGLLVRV
- PROTOCOL TEXT: human MAO-B in vitro metabolism
- Type: in vitro ADME
- CONDITION INFO: human MAO-B enzyme (Corning), test compound 1 μM, read-out: MAO-B t1/2
- Procedure: In a different series of reactions using human MAO-A and MAO-B, a 10 mM stock solution of the test compound was prepared in DMSO. […] The samples were centrifuged, and the supernatant was analyzed by LC-MS/MS. The percent compound remaining at each time point was calculated with respect to that of the 0 min sample. The data were then analyzed to calculate half-life and intrinsic clearance (CLint). […]
Each entry below lists one item and its recorded half-life at 1 µM value.
READOUT KIND: half-life at 1 µM

STRUCTURE NOTATION: [2H]C1([2H])Oc2cc(CCN)ccc2S1
VAL: < 5 min
//
STRUCTURE NOTATION: [2H]C1([2H])Oc2ccc(CCN)cc2O1
VAL: < 5 min
//
STRUCTURE NOTATION: NCCc1ccc2c(c1)OCS2
VAL: < 5 min
